# credit: paper PMC10397247

- Tgt: T1, 4H72-bH
- T1 chain: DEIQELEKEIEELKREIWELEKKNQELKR
- Protocol description: two-hybrid library CCNG1;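 further: natural log of median RNA to DNA barcode read ratio; higher means stronger binding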
Condition met means recorded interaction score is -0.3 or above; Condition not met means it is below -0.3.

Does the reported interaction score for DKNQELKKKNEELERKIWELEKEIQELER [4H4001-bH] fall at or above the -0.3 mark? Condition not met

interaction score >= -0.3 for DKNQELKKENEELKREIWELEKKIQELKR [4H3782-bH] ? Condition met

Would you say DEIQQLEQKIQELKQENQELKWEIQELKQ [4H346-bN] shows interaction score at minimum -0.3? Condition met

For this binder, is measured interaction score -0.3 or higher? DEIQELKKENEELERKIWELKKKNQELER [4H687-bH] Condition met

Hi, just wondering whether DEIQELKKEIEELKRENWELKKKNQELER [4H607-bH] shows interaction score of -0.3 or higher. Condition not met

Given the entry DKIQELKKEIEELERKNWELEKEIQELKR [4H2610-bH] , answer whether its interaction score meets or surpasses -0.3. Condition met
